experiment: chemical genetic growth profiling, strain panel (AID 1159580);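 also: tested at 20 µM; growth read once vehicle control cultures reached saturation at 30 °C; lower values mean less growth of the strain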; details: S. cerevisiae deletion strains, growth OD, locus YOR106W, strain vam3
In all, about 5,500 compounds went through this assay and about 2,000 (36%) were called active. About 18% were inconclusive and are not listed. Rule as the data show it: active = normalized growth mostly below about 0.91 (no sharp cut-off); inconclusive = no clear call, values can overlap the other calls; inactive = mostly above about 0.92. Some of the results follow.
Please answer using one outcome listed in active, inactive

Sample answers from the record:
Cc1cc(C(C)(C)C)cc(C)c1CC1=NCCN1	inactive
Cc1cc(C(C)(C)C)c(O)c(C)c1CC1=NCCN1	inactive
COc1cc2c(cc1O)CCNC2C (configuration not stated)	inactive

// return assay outcome for CCOc1ccc(NC(C)=O)cc1
inactive

Same lookup for CCOc1ccc(C(=O)c2ccc(O)c(O)c2O)cc1 , please.
active

Here is the next molecule: COc1ccc(C(=O)c2ccc(O)cc2)c(O)c1O
inactive

Okay, and CC(=O)[C@@]1(O)CCC2C3CCC4=CC(=O)CC[C@]4(C)C3CC[C@@]21C (some centres not stated) ?
inactive
